Here, each record is paired with measured IC50 data.
# Test system: LNCaP
# assayInfo: Cytotoxicity against human LNCAP cells assessed as inhibition of cell proliferation by MTT assay
# Type: functional, cell-based
measurementKind: IC50 (µM)

molecule=N#Cc1ccc(-n2ccc(CC(=O)Nc3ccc(F)nc3)n2)cc1C(F)(F)F number=8.84
molecule=N#Cc1ccc(-n2ccc(CC(=O)Nc3ccc(F)nc3)n2)cc1Cl number=6.23
molecule=N#Cc1ccc(-n2ccc(CC(=O)Nc3ccc(F)cc3)n2)cc1C(F)(F)F number=5.85
molecule="CNC(=O)c1ccc(N2C(=S)N(c3ccc(C#N)c(C(F)(F)F)c3)C(=O)C2(C)C)cc1F [ENZALUTAMIDE]" number=26.3
